# Assayed Target: T1, ZIKV (prM80E) with a C-terminal myc-myc-hexahistidine tag (Zika virus, UniProt A0A024B7W1 104-694)
# T1 construct: also called ZIKV (prM80E)-mmH; ZIKV-mmH
# Assay Text: SPR, mAb captured, 37C
Parameter Measured: t½ pH 7.4/t½ pH 5.0

Binder	Parameter Measured	Numeric Readout
H4H25641P (antibody, V domains shown) VH: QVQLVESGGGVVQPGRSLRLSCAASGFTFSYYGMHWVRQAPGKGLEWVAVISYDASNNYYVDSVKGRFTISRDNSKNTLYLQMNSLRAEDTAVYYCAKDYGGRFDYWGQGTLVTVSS VL: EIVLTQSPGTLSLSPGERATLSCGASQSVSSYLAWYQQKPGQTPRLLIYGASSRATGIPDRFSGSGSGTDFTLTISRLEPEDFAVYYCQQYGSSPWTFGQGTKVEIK	t½ pH 7.4/t½ pH 5.0	0.7

Data provenance is patent US20180016324A1.
